assay endpoint: melting point (°C)

P. Cn1ncnc1COc1nn2c(-c3ccccc3)nncc2c1-c1ccccc1
Q. C#CCOc1cc(C)nc(-c2cccc(CCC)n2)n1
Exam item: Select the item with the higher value of melting point from the options P and Q listed. Lab log: write the label of the selected item as the result.
Marked response: P
(P: 185 °C, Q: 92.5 °C)

###

assay endpoint: melting point

In [3]: df
Out[3]:
                                   compound         result
0  O=C(Oc1ccc(OC(=O)c2cc(O)cc(O)c2)c2ccccc12)c1cc(O)cc(O)c1  201 to 203 °C
1                OCc1nn(-c2ccccc2)c2c1CCCC2    75 to 77 °C
2    COc1cc2ncc(C#N)c(Nc3cccc(O)c3C)c2cc1OC  255 to 257 °C
3   CCCn1c(=S)sc2c(=N)n(NC(=O)c3ccco3)cnc21         206 °C
4            COc1cc(OC)c2c(=O)c3ccccc3oc2c1  170 to 171 °C
5  COC(=O)[C@H](Cc1cc(Cl)c(OCc2cccc3cc(-c4ccccc4)oc23)c(Cl)c1)NC(=O)C(F)(F)F  141 to 145 °C

Exam item: What does the record list as melting point for COc1cccc(OCCN2CCC(N(C)c3nccc(N(C)C)n3)CC2)c1 ?
Marked response: 105 °C

Exam item: Also, CCCC(Oc1cccc(-c2noc(C)n2)c1)C(=O)O (configuration not stated) please.
Marked response: 98 to 100 °C

Exam item: Another compound to check: CCOC(=O)C=Cc1ccc(F)c([N+](=O)[O-])c1
Marked response: 115 to 117 °C

Exam item: Input CC(=O)Nc1ccc(Cl)cc1NC(C)=O
Marked response: 216 °C

###

Items are presented alongside their recorded melting point.

Recorded results for 3 molecules are shown here.
In [3]: df
Out[3]:
                               entry_smiles  assay_endpoint         result
0  O=C(Nc1ccc2ccc(-c3ccc(Cl)cc3)nc2n1)c1cccc(Cl)c1   melting point  222 to 224 °C
1  COCCN1CCc2ccc(Nc3ncc(Cl)c(Nc4ccc(OC)c5c4C(=O)N(C)C5)n3)cc2CC1   melting point  206 to 207 °C
2      CCOC(=O)Cc1csc(NS(=O)(=O)c2ccccc2)n1   melting point  129 to 130 °C

Exam item: Need melting point, item Cc1cnc2c(C#N)c(-c3ccc(S(=O)(=O)NC4(C(F)(F)F)CC4)cn3)n(C3CCCC3)c2c1
Marked response: 249 to 251 °C

###

assay endpoint: melting point

# example entries with known answers
In [3]: df
Out[3]:
                                   compound  assay_endpoint         result
0  CN1C(=O)CC[C@]2(C)c3ccc(C=Cc4cncc5ccccc45)cc3CC[C@@H]12   melting point  183 to 185 °C
1                     Nc1cccc2c(=O)[nH]sc12   melting point  161 to 165 °C
2  NC(=O)c1nc(-c2cccc(O)c2)nc2c1[nH]c(=O)n2CC1CCCCC1   melting point  368 to 370 °C
3  CC(Cn1cnnn1)n1nnc2cc3c(=O)n(C)nnc3cc2c1=O (stereo not given)   melting point  228 to 230 °C

Then there is this compound:
Exam item: So what does the record say about melting point for COc1ccc(COc2cccnc2NC(=N)Nc2ccc(Cl)cc2)cc1 ?
Marked response: 165 to 166 °C
